What Kd was measured for each of the following?
- target.under.test: UniProt:Q9FRY7
- measurement.protocol: cytokinin binding assay, tobacco microsomal membranes
# output: bare number, implied unit nM

Notebook: c1ccc(CNc2ncnc3nc[nH]c23)cc1 [BA] , Kd read as 1.42

The recorded Kd for C[C@H](CO)CCNc1ncnc2nc[nH]c12 [DZ] is 114

Memo: O=C(Nc1ccccc1)Nc1cnns1 [TD] , reported Kd: 49.2

====

- target.under.test: ZmHK1 (tobacco membrane; fused to GFP) (Zea mays, UniProt Q9FRY7, P190L)
- Sequence (Q9FRY7 1-974 P190L): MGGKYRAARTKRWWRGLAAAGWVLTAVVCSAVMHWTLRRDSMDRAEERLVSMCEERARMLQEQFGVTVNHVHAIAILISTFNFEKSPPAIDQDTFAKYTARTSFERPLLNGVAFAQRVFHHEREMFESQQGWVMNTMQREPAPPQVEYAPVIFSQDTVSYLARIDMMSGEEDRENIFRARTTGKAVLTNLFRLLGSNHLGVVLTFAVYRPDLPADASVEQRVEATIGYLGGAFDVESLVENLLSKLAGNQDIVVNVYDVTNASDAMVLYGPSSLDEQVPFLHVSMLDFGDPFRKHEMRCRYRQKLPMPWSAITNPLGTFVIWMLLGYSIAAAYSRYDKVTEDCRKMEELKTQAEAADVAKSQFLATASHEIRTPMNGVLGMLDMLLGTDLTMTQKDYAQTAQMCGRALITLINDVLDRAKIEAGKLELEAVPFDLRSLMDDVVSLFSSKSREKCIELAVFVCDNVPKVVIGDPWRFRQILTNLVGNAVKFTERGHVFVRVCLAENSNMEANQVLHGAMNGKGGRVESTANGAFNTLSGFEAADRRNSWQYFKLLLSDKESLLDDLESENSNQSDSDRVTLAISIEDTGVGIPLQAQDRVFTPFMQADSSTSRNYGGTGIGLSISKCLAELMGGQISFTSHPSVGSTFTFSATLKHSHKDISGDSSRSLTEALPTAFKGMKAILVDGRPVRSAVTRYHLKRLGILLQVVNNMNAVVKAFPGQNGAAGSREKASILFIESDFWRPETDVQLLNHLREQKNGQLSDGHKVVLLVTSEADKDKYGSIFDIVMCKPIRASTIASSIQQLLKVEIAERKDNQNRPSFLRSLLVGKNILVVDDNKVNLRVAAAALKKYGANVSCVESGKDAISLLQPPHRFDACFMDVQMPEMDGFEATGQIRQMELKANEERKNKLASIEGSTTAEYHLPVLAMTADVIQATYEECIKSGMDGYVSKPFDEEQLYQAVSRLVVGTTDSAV
- measurement.protocol: cytokinin binding assay, tobacco microsomal membranes
metric: Kd (nM)
API: value field is a number in nM; no unit string.

The reported Kd value, ZmHK1 (tobacco membrane; fused to GFP) (Zea mays, UniProt Q9FRY7, P190L), for CC(C)=CCNc1ncnc2nc[nH]c12 [iP] reads 0.23

The measured values listed here are drawn from paper doi:10.1101/743898v3.
